Listing of entries alongside the reported EC50.
Biological target: GLP-1R (Homo sapiens)
Assay: GLP-1R Activation - cAMP Assay 2
Assay type: cell-based
Settings: cAMP increase in CHO cells stably expressing GLP-1R; pre-spotted agonists, assay buffer or 100% Human Plasma (not stated which), 30 minutes at 37° C.; read-out: GLP-1R Activation- Assay 2 EC50 (nm)
Kindly provide the numeric value in nM only, without the unit symbol.

As a guide, the following entries are already answered.
{"compound structure": "O=C(O)c1ccc2nc(Cc3cc(F)c(-c4cccc(OCc5cc(C(F)(F)F)cs5)n4)cc3F)n(C[C@@H]3CCO3)c2c1", "endpoint label": "EC50", "number": 0.4}
{"compound structure": "O=C(O)c1ccc2nc(CN3CCC(c4cccc(OCc5ccn(C(F)F)n5)n4)CC3)n(C[C@@H]3CCO3)c2c1", "endpoint label": "EC50", "number": 21.5}
{"compound structure": "Cn1cc(C#Cc2ccc(COc3cccc(C4CCN(Cc5nc6ccc(C(=O)O)cc6n5C[C@@H]5CCO5)CC4)n3)s2)cn1", "endpoint label": "EC50", "number": 3.3}

q: Given the molecule `N#Cc1cnc(COc2cccc(C3CCN(Cc4nc5ccc(C(=O)O)cc5n4C[C@@H]4CCO4)CC3)n2)s1` , what is its reported EC50?
a: 24.1

q: What about this molecule? `O=C(O)c1ccc2nc(CN3CCC(c4cccc(OCc5cc(C(F)(F)F)cs5)n4)CC3)n(C[C@@H]3CCO3)c2c1`
a: 4.1

q: Now the molecule `O=C(O)c1ccc2nc(CN3CCC(c4cccc(OCc5ncc(C(F)(F)F)s5)n4)CC3)n(C[C@@H]3CCO3)c2c1`
a: 1.8

q: Entry to check: `O=C(O)c1ccc2nc(CN3CCC(c4cccc(OCc5nc(C(F)(F)F)cs5)n4)CC3)n(C[C@@H]3CCO3)c2c1`
a: 5.2

q: Lookup `NC(=O)c1ccc(COc2cccc(C3CCN(Cc4nc5ccc(C(=O)O)cc5n4C[C@@H]4CCO4)CC3)n2)s1`
a: 36.5

----------
EC50 overview
Molecular target: GLP-1R (Homo sapiens)
Experiment: GLP-1R Activation - cAMP Assay 1
Format: cell-based
Settings: cAMP increase in CHO cells stably expressing GLP-1R; 10-point dose response, 30 minutes incubation at 37° C.
Kindly answer with a numeric value in µM, unit omitted.

Please review the following examples before continuing.
{"compound structure": "COCCn1c(CN2CCC(c3cccc(OCc4cscn4)n3)CC2)nc2ccc(C(=O)O)cc21", "system name": "GLP-1R (Homo sapiens)", "EC50, µM": 5.9}
{"compound structure": "COCCn1c(CN2CCC(c3cccc(OCc4csc5cc(Cl)ccc45)n3)CC2)nc2ccc(C(=O)O)cc21", "system name": "GLP-1R (Homo sapiens)", "EC50, µM": 0.156}
{"compound structure": "COCCn1c(CN2CCC(c3cccc(OCc4sc(C#N)cc4F)n3)CC2)nc2ccc(C(=O)O)cc21", "system name": "GLP-1R (Homo sapiens)", "EC50, µM": 0.166}

Now consider the entry below.
q: Need EC50 of `COCCn1c(CN2CCC(c3cccc(OCc4nccs4)n3)CC2)nc2ccc(C(=O)O)cc21` , thanks.
a: 0.869

----------
Molecular target: GLP-1R (Homo sapiens, UniProt P43220)
Sequence (P43220 24-463): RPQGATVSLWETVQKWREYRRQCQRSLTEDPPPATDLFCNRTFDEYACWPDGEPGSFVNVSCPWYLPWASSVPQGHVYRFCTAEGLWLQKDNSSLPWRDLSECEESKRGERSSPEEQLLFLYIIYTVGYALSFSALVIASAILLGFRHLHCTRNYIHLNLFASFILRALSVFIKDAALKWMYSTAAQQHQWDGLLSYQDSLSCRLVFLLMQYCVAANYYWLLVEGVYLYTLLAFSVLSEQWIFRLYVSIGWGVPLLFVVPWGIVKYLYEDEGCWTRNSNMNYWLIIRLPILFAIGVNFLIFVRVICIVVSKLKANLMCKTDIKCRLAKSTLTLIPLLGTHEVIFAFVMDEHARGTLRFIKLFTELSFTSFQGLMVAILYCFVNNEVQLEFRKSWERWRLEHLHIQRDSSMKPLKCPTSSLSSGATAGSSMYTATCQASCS
Assay: GLP-1R Activation - cAMP Assay 2
Type: cell-based
Protocol: GLP-1R Activation—cAMP Assay 2 GLP-1R activation by small molecule agonists is quantified by measuring cAMP increase in CHO cells stably expressing GLP-1R (MultiSpan product #C1267-1a). […] The cells are then incubated for 30 minutes at 37° C., 5% CO2. cAMP concentration increase is then detected using Cisbio's cAMP Gs Dynamic Kit (product #62AM4PEC) according to the manufacturer's protocol. […]
endpoint label: EC50 (nM)
Form entry: value (nM) — number only.

q: Can you look up EC50 on GLP-1R (Homo sapiens, UniProt P43220) for `N#Cc1ccc(COc2cccc(C3CCN(Cc4nc5ccc(C(=O)O)cc5n4C[C@@H]4CCO4)CC3)n2)s1` ?
a: 0.9

----------
Target: GLP-1R (Homo sapiens, UniProt P43220)
Assay: GLP-1R Activation - cAMP Assay 1
Assay type: cell-based
Details: cAMP increase in CHO cells stably expressing GLP-1R; 10-point dose response, 30 minutes incubation at 37° C.
Readings of EC50 for the listed compounds
Numbers only here, please. The scale is nM.

These recorded examples may help you get a feel for the data.
{"compound structure": "COCCn1c(CN2CCC(c3cccc(OCc4cnc(Cl)s4)n3)CC2)nc2ccc(C(=O)O)cc21", "system name": "GLP-1R (Homo sapiens, UniProt P43220)", "quantity unit": "nM", "number": 307}
{"compound structure": "COCCn1c(CN2CCC(c3cccc(OCc4ccc(C#N)s4)n3)CC2)nc2ccc(C(=O)O)cc21", "system name": "GLP-1R (Homo sapiens, UniProt P43220)", "quantity unit": "nM", "number": 47.3}
{"compound structure": "COCCn1c(CN2CCC(c3cccc(OCc4csc5ccccc45)n3)CC2)nc2ccc(C(=O)O)cc21", "system name": "GLP-1R (Homo sapiens, UniProt P43220)", "quantity unit": "nM", "number": 197}
{"compound structure": "COCCn1c(CN2CCC(c3cccc(OCc4nnc(Cl)s4)n3)CC2)nc2ccc(C(=O)O)cc21", "system name": "GLP-1R (Homo sapiens, UniProt P43220)", "quantity unit": "nM", "number": 294}
{"compound structure": "COCCn1c(CN2CCC(c3cccc(OCc4cnn(C)n4)n3)CC2)nc2ccc(C(=O)O)cc21", "system name": "GLP-1R (Homo sapiens, UniProt P43220)", "quantity unit": "nM", "number": 4350}

q: Any idea what its EC50 is? The compound is `COCCn1c(CN2CCC(c3cccc(OCc4ccsc4)n3)CC2)nc2ccc(C(=O)O)cc21`
a: 831
